Experiment: PAMPA (parallel artificial membrane permeability assay)
Type: in vitro ADME
Conditions: PAMPA, pH 6.5
Positions of bridges follow the written chain, without caps; N, C: chain ends. Non-standard residues stand in square brackets, D forms with d. Residues, ends and D or L forms follow the SMILES beside them. *: point of attachment. NMePhe(3-Cl) = CN[C@@H](Cc1cccc(Cl)c1)C(=O)O; NMeF = CN[C@@H](Cc1ccccc1)C(=O)O; NMeL = CN[C@@H](CC(C)C)C(=O)O; NMeA = CN[C@@H](C)C(=O)O; Piperidide = C1CCN(*)CC1
parameter_measured: Papp at 18 hours, 50 µM (×10⁻⁶ cm/s)

>  <compound>
CC[C@H](C)[C@H](NC(=O)[C@H](Cc1cccc(Cl)c1)N(C)C(=O)[C@H](CC(C)C)NC(=O)[C@H](C)N(C)C(=O)[C@H](CC(C)C)N(C)C(=O)[C@@H]1CC(=O)N[C@@H](Cc2ccccc2)C(=O)N(C)[C@@H](Cc2ccccc2)C(=O)N2CCC[C@H]2C(=O)N[C@@H](CC(C)C)C(=O)N(C)[C@@H](Cc2cccc(Cl)c2)C(=O)N[C@@H]([C@@H](C)O)C(=O)N[C@@H](CC(C)C)C(=O)N1)C(=O)N1CCCCC1 [DP-923] (F[NMeF]PL[NMePhe(3-Cl)]TLD[NMeL][NMeA]L[NMePhe(3-Cl)]I-Piperidide; lactam N-8)

>  <measured>
0.1

$$$$

* * *

Test: PAMPA (parallel artificial membrane permeability assay)
Type: in vitro ADME
Settings: membrane permeation rate (Pe); 50 mM MOPSO buffer pH 6.5 with 5.0% glycocholic acid, 37° C., 18 hours
Starred links: 1 amine or outer side, 2 acyl side, 3 side chain; linkers in the order of their positions; H or OH if unused. Positions of bridges follow the written chain, without caps; N, C: chain ends. Non-standard residues stand in square brackets, D forms with d. Residues, ends and D or L forms follow the SMILES beside them. *: point of attachment. Phe(4-(CH2)5CO) = O=C([C@H](Cc1ccc(CCCCCC(=O)[*:3])cc1)N[*:1])[*:2]; Phe(3-(CH2)4CO) = O=C([C@H](Cc1cccc(CCCCC(=O)[*:3])c1)N[*:1])[*:2]; Phe(4-CF3) = N[C@@H](Cc1ccc(C(F)(F)F)cc1)C(=O)O; NMePhe(3-Cl) = CN[C@@H](Cc1cccc(Cl)c1)C(=O)O; Arg(Me2s) = CN=C(NC)NCCC[C@H](N)C(=O)O; NMeF = CN[C@@H](Cc1ccccc1)C(=O)O; NMeI = CC[C@H](C)[C@H](NC)C(=O)O; 3Pal = N[C@@H](Cc1cccnc1)C(=O)O; NMeβAla = CN(CCC(=O)[*:2])[*:1]; NMeL = CN[C@@H](CC(C)C)C(=O)O; NMeV = CN[C@H](C(=O)O)C(C)C; NMeA = CN[C@@H](C)C(=O)O; Piperidide = C1CCN(*)CC1; dNMeA = CN[C@H](C)C(=O)O; β3hA = C[C@H](N)CC(=O)O; Sar = CNCC(=O)O; tBu = CC(C)(C)*
# reported iPAMPA Pe; entries follow

>  <molecule>
CC(C)C[C@H]1C(=O)N(C)[C@@H](CC(C)C)C(=O)N[C@@H]([C@@H](C)O)C(=O)N(C)[C@@H](Cc2cccc(Cl)c2)C(=O)NCC(=O)N(C)[C@@H](C(C)C)C(=O)N[C@@H](Cc2ccc(C(F)(F)F)cc2)C(=O)N[C@@H](C)CC(=O)N(C)CCC(=O)N[C@@H](COC(C)(C)C)C(=O)N1C [DP-809] (cyclo(G[NMeV][Phe(4-CF3)][β3hA][NMeβAla]S(tBu)[NMeL][NMeL]T[NMePhe(3-Cl)]))

>  <iPAMPA Pe>
7.0E−05

$$$$
>  <molecule>
CC[C@H](C)[C@@H]1NC(=O)[C@H](C)N(C)C(=O)[C@@H](C)N(C)C(=O)C[C@H](C)NC(=O)[C@H](CC(C)C)N(C)C(=O)[C@H](C)N(C)C(=O)[C@H](Cc2cccc(Cl)c2)N(C)C(=O)[C@H]([C@@H](C)O)NC(=O)[C@H](Cc2cccc(Cl)c2)N(C)C(=O)[C@H](CC(C)C)N(C)C1=O [DP-811] (cyclo(I[NMeL][NMePhe(3-Cl)]T[NMePhe(3-Cl)][NMeA][NMeL][β3hA][dNMeA][NMeA]))

>  <iPAMPA Pe>
7.0E−05

$$$$
>  <molecule>
CC[C@H](C)[C@H](NC(=O)[C@H](CC(C)C)N(C)C(=O)[C@H](C)N(C)C(=O)[C@@H](NC(=O)[C@H](CC(C)C)N(C)C(=O)[C@@H]1CC(=O)N[C@H](C(C)C)C(=O)N(C)[C@@H](C)C(=O)N(C)[C@@H](Cc2cccc(Cl)c2)C(=O)N(C)[C@@H](CC(C)C)C(=O)N[C@@H]([C@@H](C)O)C(=O)N(C)[C@@H](CC(C)C)C(=O)N1)[C@@H](C)CC)C(=O)N1CCCCC1 [DP-911] ([dV][NMeA][NMePhe(3-Cl)][NMeL]T[NMeL]D[NMeL]I[NMeA][NMeL]I-Piperidide; lactam N-7)

>  <iPAMPA Pe>
1.0E−07

$$$$
>  <molecule>
CC[C@H](C)[C@@H]1NC(=O)[C@H]([C@@H](C)O)NC(=O)[C@H](C)N(C)C(=O)[C@H](CC(C)C)N(C)C(=O)[C@H](Cc2ccccc2)N(C)C(=O)[C@H](Cc2ccccc2)N(C)C(=O)[C@H](C)N(C)C(=O)[C@H](CC(C)C)N(C)C(=O)[C@@H](C(C)C)NC(=O)C[C@@H](C(=O)N2CCCCC2)NC1=O [DP-172] ([dV][NMeL][NMeA][NMeF][NMeF][NMeL][NMeA]TID-Piperidide; lactam N-10)

>  <iPAMPA Pe>
7.0E−05

$$$$
>  <molecule>
C/N=C(\NC)NCCC[C@@H]1NC(=O)[C@H](Cc2ccccc2)N(C)C(=O)[C@H](CC(C)C)NC(=O)[C@H](CC(C)C)N(C)C(=O)[C@H](Cc2ccccc2)NC(=O)[C@H](CC(C)C)N(C)C(=O)[C@H](CC(C)C)N(C)C(=O)[C@H](Cc2ccccc2)NC(=O)CN(C)C(=O)C[C@@H](C(=O)N(C)[C@@H](Cc2ccccc2)C(=O)N[C@@H](C)C(=O)N2CCCCC2)NC(=O)[C@H](CC(C)C)NC1=O [DP-598] ([Sar]F[NMeL][NMeL]F[NMeL]L[NMeF][Arg(Me2s)]LD[NMeF]A-Piperidide; lactam N-11)

>  <iPAMPA Pe>
1.0E−07

$$$$
>  <molecule>
CC[C@H](C)[C@H](NC(=O)[C@H](CC(C)C)NC(=O)[C@H](CC(C)C)N(C)C(=O)[C@H](Cc1cccc(Cl)c1)N(C)C(=O)[C@@H](NC(=O)[C@@H]1CC(=O)N[C@@H](Cc2ccccc2)C(=O)N[C@@H]([C@@H](C)O)C(=O)N[C@@H](CC(C)C)C(=O)N(C)[C@@H](CC(C)C)C(=O)N(C)[C@@H](C)C(=O)N(C)[C@@H](CC(C)C)C(=O)N1)[C@@H](C)CC)C(=O)N1CCCCC1 [DP-914] (FTL[NMeL][NMeA][NMeL]DI[NMePhe(3-Cl)][NMeL]LI-Piperidide; lactam N-7)

>  <iPAMPA Pe>
1.0E−07

$$$$
>  <molecule>
CC(C)C[C@@H]1NC(=O)[C@H](Cc2cccnc2)NC(=O)[C@H](Cc2ccccc2)N(C)C(=O)[C@H](CC(C)C)NC(=O)[C@H](CC(C)C)N(C)C(=O)[C@H](Cc2ccccc2)NC(=O)[C@H](CC(C)C)N(C)C(=O)[C@H](CC(C)C)N(C)C(=O)[C@H](Cc2ccccc2)NC(=O)CN(C)C(=O)C[C@@H](C(=O)N(C)[C@@H](Cc2ccccc2)C(=O)N[C@@H](C)C(=O)N2CCCCC2)NC1=O [DP-600] ([Sar]F[NMeL][NMeL]F[NMeL]L[NMeF][3Pal]LD[NMeF]A-Piperidide; lactam N-11)

>  <iPAMPA Pe>
1.0E−07

$$$$
>  <molecule>
CC[C@H](C)[C@H]1C(=O)N[C@@H](C)C(=O)N(C)[C@@H](CC(C)C)C(=O)N[C@@H](COC(C)(C)C)C(=O)N(C)[C@@H](CC(C)C)C(=O)N[C@H](C(=O)N2CCCCC2)Cc2ccc(cc2)CCCCCC(=O)N[C@@H](Cc2ccccc2)C(=O)N(C)[C@@H](Cc2ccccc2)C(=O)N(C)[C@@H](CC(C)C)C(=O)N[C@@H]([C@@H](C)O)C(=O)N(C)[C@@H](C)C(=O)N1C [DP-873] (F[NMeF][NMeL]T[NMeA][NMeI]A[NMeL]S(tBu)[NMeL][Phe(4-(CH2)5CO)]-Piperidide; lactam N-11)

>  <iPAMPA Pe>
1.0E−07

$$$$
>  <molecule>
CC[C@H](C)[C@@H]1NC(=O)[C@H](CC(C)C)N(C)C(=O)CCCCc2cccc(c2)C[C@@H](C(=O)N2CCCCC2)NC(=O)[C@H](CC(C)C)N(C)C(=O)[C@H](C)N(C)C(=O)[C@H]([C@@H](C)O)NC(=O)[C@H](CC(C)C)N(C)C(=O)[C@H](COC(C)(C)C)NC(=O)[C@H](Cc2ccccc2)N(C)C(=O)[C@H](Cc2ccccc2)N(C)C1=O [DP-862] ([NMeL]I[NMeF][NMeF]S(tBu)[NMeL]T[NMeA][NMeL][Phe(3-(CH2)4CO)]-Piperidide; lactam N-10)

>  <iPAMPA Pe>
1.0E−07

$$$$

Data origin: patent US9409952B2
